Data origin, for the record: patent US7728025B2

Target: recombinant human liver GK (Homo sapiens, UniProt P35557)
Sequence (P35557 1-466 isoform P35557-2): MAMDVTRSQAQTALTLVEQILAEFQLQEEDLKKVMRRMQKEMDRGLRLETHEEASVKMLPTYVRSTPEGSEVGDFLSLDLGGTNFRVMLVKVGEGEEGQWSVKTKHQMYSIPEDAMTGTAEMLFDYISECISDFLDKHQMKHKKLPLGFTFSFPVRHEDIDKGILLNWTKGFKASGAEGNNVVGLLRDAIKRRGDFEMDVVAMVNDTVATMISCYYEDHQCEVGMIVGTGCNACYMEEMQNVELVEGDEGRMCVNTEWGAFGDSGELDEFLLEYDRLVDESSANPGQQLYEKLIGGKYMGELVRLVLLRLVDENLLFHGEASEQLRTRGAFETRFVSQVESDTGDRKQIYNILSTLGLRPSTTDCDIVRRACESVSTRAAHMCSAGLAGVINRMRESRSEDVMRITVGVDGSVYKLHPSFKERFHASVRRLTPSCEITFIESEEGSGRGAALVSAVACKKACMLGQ
Assay: Glucokinase (GK) activation assay: Thio-NADH formation coupled with G6PDH, absorbance at 405 nm
Settings: final glucose concentration 2.5 mM; 30° C.
Please go through the items and note down their pEC50.
As a rule, pEC50 stands for the negative log10 of the concentration, concentration in M.

In: Quick check: pEC50 of COc1ccccc1Oc1cc(Oc2cccnc2)cc2[nH]c(-c3ccccn3)nc12 ?
Out: 5.85

In: Quick check: pEC50 of CC(=O)c1ccccc1Oc1cc2nc(-c3ccccn3)[nH]c2cc1Oc1ccc(C(=O)N(C)C)cc1 ?
Out: 5.64
